- run.description: Stability in liver microsomes, human
- measurement.setup: human
- Procedure: Mixed-gender human liver microsomes, male Sprague-Dawley rat liver microsomes, and male Beagle dog liver microsomes were purchased from XenoTech. The reaction mixture, minus NADPH, was prepared as described below. […] Aliquots of the supernatant were removed, diluted 1:1 into distilled water containing internal standard, and analyzed by LC-MS/MS against calibration standards prepared in a matched matrix. All samples were analyzed for the dosed prodrugs as well as the drug, treprostinil. […]
Kindly supply the reported AUC values for the records listed here.
Numbers only, in µmol·min/L.

# annotated cases, reported AUC shown
compound: CCCCCC(CCC1C(O)CC2Cc3c(cccc3OCC(=O)O)CC21)OCOC(=O)C(C)(C)C (stereo not shown)
measurement: 35.46
--
compound: CCCCCC1CCC2C(CC3Cc4c(cccc4OCC(=O)O)CC32)OP(=O)(Oc2ccccc2)O1 (mixture of isomers)
measurement: 0.00
--
compound: CCCCCC(CCC1C(O)CC2Cc3c(cccc3OCC(=O)O)CC21)OC(=O)c1ccc(O)cc1 (stereo not shown)
measurement: 13.55

Now for the compound whose AUC we want.
Prompt: # query: AUC of entry CCCCCC(CCC1C(O)CC2Cc3c(cccc3OCC(=O)O)CC21)OCCN1CCOCC1 (stereo not shown)
Completion: 0.17
